- study.system: beta-catenin/TCF4 engagement (Homo sapiens, UniProt P35222)
- Construct: expressed in transfected cells; host or cells: HEK293
- protocol.summary: Nano-BRET target engagement assay (B-cat-Halo & TCF4-Luc in HEK293 cells)
- Format: cell-based
- setup.conditions: absolute IC50; read-out: NanoBRET Abs IC50
readout.type: pIC50
Give only the number. pIC50 is defined as minus log10 of concentration in molar units.

Q. Find the recorded pIC50 belonging to CC(=O)N1CCC[C@]12CC=CCCCC1(CCCC=CCCCCCC[C@@](C)(C(=O)N[C@@H](Cc3cccs3)C(=O)N[C@@H](Cc3csc4ccccc34)C(=O)N[C@@H](CCC(N)=O)C(N)=O)NC(=O)[C@H](CCO)NC(=O)[C@H](Cc3ccccc3)NC(=O)[C@H](C)NC(=O)[C@H](C)NC(=O)[C@H](CC(=O)O)NC(=O)[C@H](CC(=O)O)NC1=O)NC(=O)[C@H](CC(C)(C)C)NC(=O)[C@H](CC(=O)O)NC2=O (some centres unmarked) [I-1392] and report it.
A. 4.74

* * *

- study.system: full-length beta-Catenin (Uniprot ID P35222) (Homo sapiens)
- Construct: 10 nM full-length beta-Catenin (Uniprot ID P35222)
- Sequence (P35222 1-781): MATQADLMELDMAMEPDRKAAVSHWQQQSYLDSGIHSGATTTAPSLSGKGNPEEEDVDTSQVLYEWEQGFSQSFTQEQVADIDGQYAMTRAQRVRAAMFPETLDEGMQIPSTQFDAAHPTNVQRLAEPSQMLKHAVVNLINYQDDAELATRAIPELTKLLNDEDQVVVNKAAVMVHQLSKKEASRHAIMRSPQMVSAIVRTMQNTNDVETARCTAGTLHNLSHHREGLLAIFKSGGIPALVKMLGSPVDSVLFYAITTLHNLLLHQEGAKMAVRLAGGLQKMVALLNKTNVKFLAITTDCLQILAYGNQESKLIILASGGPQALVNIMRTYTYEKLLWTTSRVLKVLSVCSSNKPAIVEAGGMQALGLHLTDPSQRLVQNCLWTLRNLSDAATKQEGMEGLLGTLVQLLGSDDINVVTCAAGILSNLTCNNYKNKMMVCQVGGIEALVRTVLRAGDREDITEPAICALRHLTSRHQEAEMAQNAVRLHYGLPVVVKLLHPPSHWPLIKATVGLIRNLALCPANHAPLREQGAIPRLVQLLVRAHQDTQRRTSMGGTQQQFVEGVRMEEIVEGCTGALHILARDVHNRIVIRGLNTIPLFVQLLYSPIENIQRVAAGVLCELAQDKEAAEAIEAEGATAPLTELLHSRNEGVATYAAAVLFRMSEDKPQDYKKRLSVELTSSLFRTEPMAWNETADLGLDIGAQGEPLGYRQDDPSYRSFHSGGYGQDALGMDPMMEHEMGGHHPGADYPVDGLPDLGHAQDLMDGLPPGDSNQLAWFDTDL
- protocol.summary: Fluorescence polarization IC50 (beta-catenin / 5FAM-TCF4 10-53 competition)
- Assay type: binding
- setup.conditions: read-out: beta-Catenin FP IC50
readout.type: IC50 (nM)
# unit: nM | format: bare number

Solved entries:
compound	readout.type	quantity.unit	observed.result
CC(=O)N1CCC[C@]12CC=CCCCC1(CCCC=CCCCOC(=O)N3CC[C@@](C(=O)N[C@@H](Cc4ccsc4)C(=O)N[C@@H](Cc4csc5ccccc45)C(=O)N[C@@H](CCC(N)=O)C(N)=O)(C3)NC(=O)[C@H](CC(C)C)NC(=O)[C@H](Cc3ccccc3)NC(=O)[C@H](C)NC(=O)[C@H](C)NC(=O)[C@H](Cc3ccccc3C(=O)O)NC(=O)[C@H](CC(=O)O)NC1=O)NC(=O)[C@H](CC(C)(C)C)NC(=O)[C@H](CC(=O)O)NC2=O (stereo partly drawn)	IC50	nM	8
CC(=O)N1CCC[C@]12CC=CCCCC1(CCCC=CCCCOC(=O)N3CC[C@@](C(=O)N[C@@H](Cc4ccsc4)C(=O)N[C@@H](Cc4csc5ccccc45)C(=O)N[C@@H](CCC(N)=O)C(N)=O)(C3)NC(=O)[C@H](CCO)NC(=O)[C@H](Cc3ccccc3)NC(=O)[C@H](C)NC(=O)[C@H](C)NC(=O)[C@H](CC(=O)O)NC(=O)[C@H](CC(=O)O)NC1=O)NC(=O)[C@H](CC(C)(C)C)NC(=O)[C@H](CC(=O)O)NC2=O (stereo partly drawn)	IC50	nM	5
CC(=O)N1CCC[C@]12CC=CCCCC1(CCCC=CCCCOC(=O)N3CC[C@@](C(=O)N[C@@H](Cc4ccsc4)C(=O)N[C@@H](Cc4csc5ccccc45)C(=O)N[C@@H](CCC(N)=O)C(N)=O)(C3)NC(=O)[C@H](CC(N)=O)NC(=O)[C@H](Cc3ccccc3)NC(=O)[C@H](C)NC(=O)[C@H](C)NC(=O)[C@H](CC(N)=O)NC(=O)[C@H](CC(=O)O)NC1=O)NC(=O)[C@H](CC(C)(C)C)NC(=O)[C@H](CC(=O)O)NC2=O (stereo partly drawn)	IC50	nM	11
CC(=O)N1CCC[C@]12CC=CCCCC1(CCCC=CCCCOC(=O)N3CC[C@@](C(=O)N[C@@H](Cc4ccsc4)C(=O)N[C@@H](Cc4csc5ccccc45)C(=O)N[C@@H](CO)C(N)=O)(C3)NC(=O)[C@H](CO)NC(=O)[C@H](Cc3ccccc3)NC(=O)[C@H](C)NC(=O)[C@H](C)NC(=O)[C@H](CN(CC(=O)O)CC(F)(F)F)NC(=O)[C@H](CC(=O)O)NC1=O)NC(=O)[C@H](CC(C)(C)C)NC(=O)[C@H](CC(=O)O)NC2=O (stereo partly drawn) [I-955]	IC50	nM	1200
CC(=O)N1CCC[C@]12CC=CCCCC1(CCCC=CCCCOC(=O)N3CC[C@@](C(=O)N[C@@H](Cc4ccccc4Cl)C(=O)N[C@@H](Cc4csc5ccccc45)C(=O)N[C@@H](CCC(N)=O)C(N)=O)(C3)NC(=O)[C@H](CC3CCCCC3)NC(=O)[C@H](Cc3ccccc3)NC(=O)[C@H](C)NC(=O)[C@H](C)NC(=O)[C@H](CC(=O)O)NC(=O)[C@H](CC(=O)O)NC1=O)NC(=O)[C@H](CC1CCCCC1)NC(=O)[C@H](CC(=O)O)NC2=O (stereo partly drawn)	IC50	nM	18

Q. Find the recorded IC50 belonging to CC(=O)N1CCC[C@]12CC=CCCCC1(CCCC=CCCCOC(=O)N3CC[C@@](C(=O)N[C@@H](Cc4ccsc4)C(=O)N[C@@H](Cc4csc5ccccc45)C(=O)N[C@@H](CCC(N)=O)C(N)=O)(C3)NC(=O)[C@H](Cc3ccccc3)NC(=O)[C@H](Cc3ccccc3)NC(=O)[C@H](C)NC(=O)[C@H](C)NC(=O)[C@H](CN(CC(=O)O)CC(F)(F)F)NC(=O)[C@H](CC(=O)O)NC1=O)NC(=O)[C@H](CC(C)(C)C)NC(=O)[C@H](CC(=O)O)NC2=O (stereo partly drawn) and report it.
A. 13

Q. Next entry: CC(=O)N1CCC[C@]12CC=CCCCC1(CCCC=CCCCOC(=O)N3CC[C@@](C(=O)N[C@@H](Cc4ccccc4Cl)C(=O)N[C@@H](Cc4csc5ccccc45)C(=O)N[C@@H](CO)C(N)=O)(C3)NC(=O)[C@H](CC(C)C)NC(=O)[C@H](Cc3ccccc3)NC(=O)[C@H](C)NC(=O)[C@H](C)NC(=O)[C@H](CC(=O)O)NC(=O)[C@H](CC(=O)O)NC1=O)NC(=O)[C@H](CC(C)(C)C)NC(=O)[C@H](CC(=O)O)NC2=O (stereo partly drawn) [I-1065]
A. 520

Q. Next entry: CC(=O)N1CCC[C@]12CC=CCCCC1(CCCC=CCCCOC(=O)N3CC[C@@](C(=O)N[C@@H](Cc4ccccc4Cl)C(=O)N[C@@H](Cc4csc5ccccc45)C(=O)N[C@@H](CCC(N)=O)C(N)=O)(C3)NC(=O)[C@H]([C@@H](C)O)NC(=O)[C@H](Cc3ccccc3)NC(=O)[C@H](C)NC(=O)[C@H](C)NC(=O)[C@H](CN(CC(=O)O)CC(F)(F)F)NC(=O)[C@H](CC(=O)O)NC1=O)NC(=O)[C@H](CC(C)(C)C)NC(=O)[C@H](CC(=O)O)NC2=O (stereo partly drawn)
A. 12

Q. Next entry: CC(=O)N1CCC[C@]12CC=CCCCC1(CCCC=CCCCOC(=O)N3CC[C@@](C(=O)N[C@@H](Cc4ccccc4Cl)C(=O)N[C@@H](Cc4csc5ccccc45)C(=O)N[C@@H](CO)C(N)=O)(C3)NC(=O)[C@H](CO)NC(=O)[C@H](Cc3ccccc3)NC(=O)[C@H](C)NC(=O)[C@H](C)NC(=O)[C@H](CC(=O)O)NC(=O)[C@H](CC(=O)O)NC1=O)NC(=O)[C@H](CC1CCCCC1)NC(=O)[C@H](CC(=O)O)NC2=O (stereo partly drawn)
A. 5
